Entry source: patent US20230066946A1

Test system: STEME
Experiment: Pre-emergence herbicidal action against STEME
Format: in vivo, Stellaria media
Settings: 1280 g/ha, scored visually after about 3 weeks vs untreated controls
experimentalReadout: Pre-emergence action against STEME in % (%)
Kindly provide the numeric value in % only, without the unit symbol.

Query: For C=CCNC(=O)COc1nn(-c2c(F)cccc2F)c(-c2ccc(F)c(F)c2)c1[N+](=O)[O-] , write its Pre-emergence action against STEME in %.
Reply: 90

Query: For COC(=O)C(C)Oc1nn(-c2ccccc2F)c(-c2ccccc2)c1C#N (centres unmarked) , write its Pre-emergence action against STEME in %.
Reply: 100

Query: For O=C(COc1nn(-c2ccccc2)c(-c2ccc(F)cc2)c1Br)OCc1ccccc1 , write its Pre-emergence action against STEME in %.
Reply: 100

Query: For C#CCNC(=O)COc1nn(-c2ccccc2)c(-c2ccc(F)cc2)c1Br , write its Pre-emergence action against STEME in %.
Reply: 100

Query: For O=C(O)COc1nn(-c2ccccc2F)c(-c2ccc(F)c(F)c2)c1Br , write its Pre-emergence action against STEME in %.
Reply: 100

====

System: VERPE
Assay: Post-emergence herbicidal action against VERPE
Type: in vivo, Veronica persica
Details: 320 g/ha, visual rating about 3 weeks after treatment
experimentalReadout: Post-emergence action against VERPE in % (%)
Kindly provide the numeric value in % only, without the unit symbol.

Query: For COC(=O)COc1nn(-c2ccccc2)c(-c2ccc(F)cc2)c1Br , write its Post-emergence action against VERPE in %.
Reply: 80

Query: For COC(=O)COc1nn(-c2ccccc2F)c(-c2ccccc2)c1Br , write its Post-emergence action against VERPE in %.
Reply: 80

Query: For COC(=O)COc1nn(-c2ccc(F)cc2)c(-c2ccc(F)c(F)c2)c1Cl , write its Post-emergence action against VERPE in %.
Reply: 80

Query: For COC(=O)COc1nn(-c2ccccc2F)c(-c2ccccc2)c1C#N , write its Post-emergence action against VERPE in %.
Reply: 80

Query: For CCOC(=O)COc1nn(-c2ccc(F)cc2F)c(-c2ccccc2)c1Cl , write its Post-emergence action against VERPE in %.
Reply: 90

Query: For CCOC(=O)COc1nn(-c2ccccc2)c(-c2ccc(F)cc2)c1Br , write its Post-emergence action against VERPE in %.
Reply: 90

Query: For COC(=O)[C@@H](C)Oc1nn(-c2cccc(F)c2)c(-c2cccc(F)c2)c1C#N , write its Post-emergence action against VERPE in %.
Reply: 80

Query: For COC(=O)COc1nn(-c2ccccc2F)c(-c2ccc(F)c(F)c2)c1Br , write its Post-emergence action against VERPE in %.
Reply: 80

Query: For C=CCNC(=O)COc1nn(-c2ccc(F)cc2)c(-c2cccc(F)c2)c1Br , write its Post-emergence action against VERPE in %.
Reply: 90

====

Can you tell me Pre-emergence action against POLCO in % for the items I'm about to list?
Tested on: POLCO
Test: Pre-emergence herbicidal action against POLCO
Type: in vivo, Polygonum convolvulus
Conditions: 320 g/ha, scored visually after about 3 weeks vs untreated controls
Kindly provide the numeric value in % only, without the unit symbol.

Query: For COC(=O)COc1nn(-c2ccccc2F)c(-c2ccccc2)c1Br [I-054] , write its Pre-emergence action against POLCO in %.
Reply: 100

Query: For C[Si](C)(C)COC(=O)COc1nn(-c2ccccc2F)c(-c2ccc(F)c(F)c2)c1Br [I-102] , write its Pre-emergence action against POLCO in %.
Reply: 100

Query: For COC(=O)COc1nn(-c2ccccc2)c(-c2ccc(F)cc2)c1Cl [I-008] , write its Pre-emergence action against POLCO in %.
Reply: 80

Query: For O=C(O)COc1nn(-c2ccccc2F)c(-c2ccccc2)c1Br [I-082] , write its Pre-emergence action against POLCO in %.
Reply: 80
